Measured values drawn from patent US20100099670A1 for this set.

TARGET OR SYSTEM: human PcaR (Homo sapiens, UniProt P41180)
Sequence (P41180 20-1078): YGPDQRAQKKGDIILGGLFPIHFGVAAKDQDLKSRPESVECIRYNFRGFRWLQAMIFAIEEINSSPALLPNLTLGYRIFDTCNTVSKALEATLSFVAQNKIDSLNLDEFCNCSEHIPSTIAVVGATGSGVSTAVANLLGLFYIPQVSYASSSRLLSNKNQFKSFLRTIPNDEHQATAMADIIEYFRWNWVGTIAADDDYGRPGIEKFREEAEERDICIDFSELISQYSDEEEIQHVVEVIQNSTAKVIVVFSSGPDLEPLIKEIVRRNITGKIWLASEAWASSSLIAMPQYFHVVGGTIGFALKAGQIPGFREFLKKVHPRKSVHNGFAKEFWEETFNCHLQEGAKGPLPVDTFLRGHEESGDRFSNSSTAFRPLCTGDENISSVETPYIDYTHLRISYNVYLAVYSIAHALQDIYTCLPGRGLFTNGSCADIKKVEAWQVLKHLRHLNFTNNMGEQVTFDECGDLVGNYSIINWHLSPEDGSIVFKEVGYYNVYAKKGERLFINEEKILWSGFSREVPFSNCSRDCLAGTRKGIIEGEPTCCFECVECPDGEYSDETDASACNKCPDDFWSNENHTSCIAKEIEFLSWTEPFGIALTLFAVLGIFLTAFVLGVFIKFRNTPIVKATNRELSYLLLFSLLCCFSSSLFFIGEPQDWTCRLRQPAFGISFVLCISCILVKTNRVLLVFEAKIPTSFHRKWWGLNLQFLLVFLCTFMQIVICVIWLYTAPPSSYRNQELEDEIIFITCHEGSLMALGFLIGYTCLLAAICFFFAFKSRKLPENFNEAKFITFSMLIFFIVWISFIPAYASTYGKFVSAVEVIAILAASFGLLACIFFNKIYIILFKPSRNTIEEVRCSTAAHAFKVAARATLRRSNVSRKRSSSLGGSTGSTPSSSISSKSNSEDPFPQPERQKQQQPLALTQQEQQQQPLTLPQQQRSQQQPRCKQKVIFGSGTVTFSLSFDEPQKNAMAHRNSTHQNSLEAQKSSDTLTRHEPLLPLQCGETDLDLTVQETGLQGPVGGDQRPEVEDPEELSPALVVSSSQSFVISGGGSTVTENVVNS
ASSAY DETAILS: Inhibition of intracellular calcium transients stimulated by extracellular calcium (assay for intracellular free calcium)
SETTINGS: CCL39 fibroblasts stably transfected with human PcaR; Fluo-3 AM; stimulated with calcium 2.5 mM final; read-out: IC50 (nm) (range in which compound fall)
OBSERVABLE: IC50

Worked cases, answers included:
>>> value_measured("C#CCOc1ccc2nc(C(=O)c3ccc4c(c3)-c3ccccc3C4=O)nc(-c3ccc(C(C)C)cc3)c2c1 [Example 12]")
"0.2 to 0.5 nM"
>>> value_measured("C#CCOc1ccc2nc(C(=O)c3ccc4c(c3)OCCO4)nc(-c3ccc(C(C)C)cc3)c2c1 [Example 1]")
"0.5 to 1 nM"
>>> value_measured("C#CCOc1ccc2nc(C(=O)c3ccc4c(c3)C(C)(C)CCC4(C)C)nc(-c3ccc(C(C)C)cc3)c2c1 [Example 9]")
"1 to 5 nM"
>>> value_measured("C#CCOc1ccc2nc(C(=O)c3ccc4c(c3)OCCN4C)nc(-c3ccc(C(C)C)cc3)c2c1 [Example 7]")
"0.2 to 0.5 nM"
>>> value_measured("C#CCOc1ccc2nc(C(=O)c3ccc4c(c3)OC=CO4)nc(-c3ccc(C(C)C)cc3)c2c1 [Example 4]")
"0.5 to 1 nM"
>>> value_measured("C#CCOc1ccc2nc(C(=O)c3ccc4c(c3)CCO4)nc(-c3ccc(C(C)C)cc3)c2c1 [Example 3]")
"0.2 to 0.5 nM"

*Q* Tell me IC50 reported for C#CCOc1ccc2nc(C(=O)c3ccc4c(c3)OCC4)nc(-c3ccc(C(C)C)cc3)c2c1 [Example 6]
*A* 0.2 to 0.5 nM

*Q* Could you please provide reported IC50 for C#CCOc1ccc2nc(C(=O)c3ccc4c(c3)N(C)CCO4)nc(-c3ccc(C(C)C)cc3)c2c1 [Example 10] ? Thanks!
*A* 1 to 5 nM

*Q* For the compound C#CCOc1ccc2nc(C(=O)c3nc4ccc(OC)cc4s3)nc(-c3ccc(C(C)C)cc3)c2c1 [Example 11] , give its reported IC50.
*A* 5 to 10 nM

*Q* Supply recorded IC50 for C#CCOc1ccc2nc(C(=O)c3ccc4c(c3)CCC4)nc(-c3ccc(C(C)C)cc3)c2c1 [Example 5] here.
*A* 0.5 to 1 nM

*Q* Supply measured IC50 of C#CCOc1ccc2nc(C(=O)c3ccc4c(c3)OCO4)nc(-c3ccc(C(C)C)cc3)c2c1 [Example 2] in your reply.
*A* 0.2 to 0.5 nM

*Q* Look up IC50 of C#CCOc1ccc2nc(C(=O)c3ccc4occc4c3)nc(-c3ccc(C(C)C)cc3)c2c1 [Example 8] and report it.
*A* 0.2 to 0.5 nM
